- Target or test system: recombinant human MAO-B (monoamine oxidase-B) (Homo sapiens, UniProt P27338)
- Construct: purchased Sigma-Aldrich
- Sequence (P27338 1-520): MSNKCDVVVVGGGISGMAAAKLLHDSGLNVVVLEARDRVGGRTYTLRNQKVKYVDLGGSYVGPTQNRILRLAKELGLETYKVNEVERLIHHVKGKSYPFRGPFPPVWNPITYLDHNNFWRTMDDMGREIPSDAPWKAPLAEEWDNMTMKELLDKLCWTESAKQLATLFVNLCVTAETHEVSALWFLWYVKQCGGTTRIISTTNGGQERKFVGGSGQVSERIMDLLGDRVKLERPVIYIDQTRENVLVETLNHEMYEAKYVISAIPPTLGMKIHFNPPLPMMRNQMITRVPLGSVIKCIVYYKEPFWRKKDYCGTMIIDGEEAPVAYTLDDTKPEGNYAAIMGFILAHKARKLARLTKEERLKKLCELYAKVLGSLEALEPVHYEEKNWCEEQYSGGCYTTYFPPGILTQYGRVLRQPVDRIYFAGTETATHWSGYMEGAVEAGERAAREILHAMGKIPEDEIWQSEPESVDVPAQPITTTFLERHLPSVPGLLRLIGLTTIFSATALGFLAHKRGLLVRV
- Assay summary: Activity evaluation on recombinant human MAO-B (Amplex Red/HRP-coupled assay, 1 mM benzylamine substrate)
- Type: biochemical
- Conditions: 1 mM benzylamine, read-out: Inhibitory Activity (IC50, nM) MAO-B
Counter-ions that a name gives are not always drawn.
Readout type: IC50

1. Cc1cc(-c2ccnc(-n3cnn(CC(CN)=C(F)F)c3=O)c2)cc2c1NC(=O)CC2 [Example 59, Trifluoroacetate]; > 100000 nM
2. NCC(Cn1ncn(-c2ccnc(Br)c2)c1=O)=C(F)F [Example 10, Trifluoroacetate]; > 100000 nM
3. Cc1cc(-c2ccc(S(C)(=O)=O)cc2)sc1Cn1cnn(CC(CN)=C(F)F)c1=O [Example 154, Trifluoroacetate]; > 100000 nM

###

- Target or test system: recombinant human MAO-B (monoamine oxidase-B) (Homo sapiens)
- Construct: purchased Sigma-Aldrich
- Assay summary: Activity evaluation on recombinant human MAO-B (Amplex Red/HRP-coupled assay, 1 mM benzylamine substrate)
- Type: biochemical
- Conditions: 1 mM benzylamine substrate, read-out: Inhibitory Activity (IC50, nM) MAO-B
Where a name gives a salt, the structure may show the parent alone.
Listed next: entries and their corresponding IC50.
Readout type: IC50

1) NCC(Cn1ncn(Cc2ccc(-c3cnn(S(=O)(=O)C4CC4)c3)s2)c1=O)=C(F)F [Example 294, Trifluoroacetate]; > 100000 nM
2) Cc1cc(C#Cc2cnc3c(c2)NC(=O)CO3)cnc1-n1cnn(CC(CN)=C(F)F)c1=O [Example 247, Trifluoroacetate]; > 100000 nM
3) Cn1cc(-c2csc(Cn3cnn(CC(CN)=C(F)F)c3=O)c2)ccc1=O [Example 190, Trifluoroacetate]; > 100000 nM

###

- Target or test system: recombinant human VAP-1 (Homo sapiens, UniProt Q16853)
- Construct: purchased R&D systems
- Sequence (Q16853 1-763): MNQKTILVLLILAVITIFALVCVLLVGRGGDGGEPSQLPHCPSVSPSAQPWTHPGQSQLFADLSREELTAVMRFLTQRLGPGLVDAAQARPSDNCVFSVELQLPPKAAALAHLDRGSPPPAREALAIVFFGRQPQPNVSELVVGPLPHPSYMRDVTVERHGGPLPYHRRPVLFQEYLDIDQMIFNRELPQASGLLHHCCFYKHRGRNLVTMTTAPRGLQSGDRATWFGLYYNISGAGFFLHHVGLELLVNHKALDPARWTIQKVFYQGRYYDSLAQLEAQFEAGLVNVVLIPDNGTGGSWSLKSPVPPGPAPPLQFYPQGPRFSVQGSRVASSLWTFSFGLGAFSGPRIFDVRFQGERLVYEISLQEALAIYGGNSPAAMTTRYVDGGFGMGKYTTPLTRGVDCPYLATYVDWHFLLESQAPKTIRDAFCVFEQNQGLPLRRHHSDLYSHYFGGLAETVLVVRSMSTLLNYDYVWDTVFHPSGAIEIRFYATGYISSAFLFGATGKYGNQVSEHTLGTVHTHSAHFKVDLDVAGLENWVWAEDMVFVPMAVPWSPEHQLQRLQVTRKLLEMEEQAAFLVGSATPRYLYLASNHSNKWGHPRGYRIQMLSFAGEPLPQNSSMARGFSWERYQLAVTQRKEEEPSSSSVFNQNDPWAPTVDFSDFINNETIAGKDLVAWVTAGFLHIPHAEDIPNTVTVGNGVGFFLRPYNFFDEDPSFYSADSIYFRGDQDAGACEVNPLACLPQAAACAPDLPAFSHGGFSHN
- Assay summary: Activity evaluation on recombinant human VAP-1 (Amplex Red/HRP-coupled hydrogen peroxide assay, benzylamine substrate)
- Assay type: biochemical
- Conditions: recombinant human VAP-1; 30 min preincubation at 37° C.; 1 mM benzylamine; read-out: Inhibitory Activity (IC50, nM) human VAP-1
Counter-ions that a name gives are not always drawn.
Listed next: entries and their corresponding IC50.
Readout type: IC50 (nM)

1) CN(C)S(=O)(=O)c1cccc(-c2ccc(Cn3cnn(CC(CN)=C(F)F)c3=O)s2)c1 [Example 103, trifluoroacetate]; 0.9
2) Cc1cc(-c2ccc(N(C)C)nc2)cnc1-n1cnn(CC(CN)=C(F)F)c1=O [Example 71, Trifluoroacetate]; 0.8
3) NCC(Cn1ncn(-c2ccnc(Br)c2)c1=O)=C(F)F [Example 10, Trifluoroacetate]; 7.7
4) CN(C)c1ccc(-c2ccc(Cn3cnn(CC(CN)=C(F)F)c3=O)s2)cn1 [Example 112, Trifluoroacetate]; 0.2
5) CS(=O)(=O)c1ccc(-c2cccc(-n3cnn(CC(CN)=C(F)F)c3=O)c2)cc1 [Example 17, Trifluoroacetate]; 12
6) CCn1cc(-c2cnc(-n3cnn(CC(CN)=C(F)F)c3=O)c(C)c2)cn1 [Example 75, Trifluoroacetate]; 0.7
7) NCC(Cn1ncn(Cc2ccc(-c3ccc4c(c3)COC(=O)N4)s2)c1=O)=C(F)F [Example 143, Trifluoroacetate]; 0.2
8) CCn1cc(-c2ccc(-n3cnn(CC(CN)=C(F)F)c3=O)c(F)c2)cn1 [Example 37, Trifluoroacetate]; 0.5
9) NCC(Cn1ncn(Cc2ccc(-c3ccn4ncnc4c3)s2)c1=O)=C(F)F [Example 128, Trifluoroacetate]; 0.7
10) CS(=O)(=O)c1ccc(-c2cnc(-n3cnn(CC(CN)=C(F)F)c3=O)c(F)c2)cc1 [Example 82, Trifluoroacetate]; 0.1
11) NCC(Cn1ncn(-c2ccc(-c3ccc4c(c3)OCO4)cc2F)c1=O)=C(F)F [Example 35, Trifluoroacetate]; 0.3
12) Cc1cc(-c2ccc(-n3cnn(CC(CN)=C(F)F)c3=O)c(F)c2)cc2c1NC(=O)CC2 [Example 36, Trifluoroacetate]; 0.1
13) CN(C)c1ccc(-c2csc(Cn3cnn(CC(CN)=C(F)F)c3=O)c2)cn1 [Example 149, Trifluoroacetate]; 0.6
14) Cc1cc(-c2ccc3c(c2)CCC(=O)N3C)cnc1-n1cnn(CC(CN)=C(F)F)c1=O [Example 74, Trifluoroacetate]; 0.3
15) Cc1cc(-c2ccnc(-n3cnn(CC(CN)=C(F)F)c3=O)c2)cc2c1NC(=O)CC2 [Example 59, Trifluoroacetate]; 0.5
16) CC(=O)c1ccc(-c2ccc(Cn3cnn(CC(CN)=C(F)F)c3=O)s2)cc1 [Example 100, trifluoroacetate]; 0.5
17) CS(=O)(=O)c1ccc(-c2ccc(-n3cnn(CC(CN)=C(F)F)c3=O)c(F)c2)cc1 [Example 31, Trifluoroacetate]; 0.2
18) CC(=O)Nc1nc2ccc(-c3ccc(Cn4cnn(CC(CN)=C(F)F)c4=O)s3)cc2s1 [Example 131, trifluoroacetate]; 0.4
19) Cc1cc(-n2cnn(CC(CN)=C(F)F)c2=O)cnc1-c1ccc2c(c1)CCC(=O)N2C [Example 81, Trifluoroacetate]; 0.4

###

- Target or test system: recombinant human VAP-1 (Homo sapiens)
- Construct: purchased R&D systems
- Sequence (Q16853 1-763): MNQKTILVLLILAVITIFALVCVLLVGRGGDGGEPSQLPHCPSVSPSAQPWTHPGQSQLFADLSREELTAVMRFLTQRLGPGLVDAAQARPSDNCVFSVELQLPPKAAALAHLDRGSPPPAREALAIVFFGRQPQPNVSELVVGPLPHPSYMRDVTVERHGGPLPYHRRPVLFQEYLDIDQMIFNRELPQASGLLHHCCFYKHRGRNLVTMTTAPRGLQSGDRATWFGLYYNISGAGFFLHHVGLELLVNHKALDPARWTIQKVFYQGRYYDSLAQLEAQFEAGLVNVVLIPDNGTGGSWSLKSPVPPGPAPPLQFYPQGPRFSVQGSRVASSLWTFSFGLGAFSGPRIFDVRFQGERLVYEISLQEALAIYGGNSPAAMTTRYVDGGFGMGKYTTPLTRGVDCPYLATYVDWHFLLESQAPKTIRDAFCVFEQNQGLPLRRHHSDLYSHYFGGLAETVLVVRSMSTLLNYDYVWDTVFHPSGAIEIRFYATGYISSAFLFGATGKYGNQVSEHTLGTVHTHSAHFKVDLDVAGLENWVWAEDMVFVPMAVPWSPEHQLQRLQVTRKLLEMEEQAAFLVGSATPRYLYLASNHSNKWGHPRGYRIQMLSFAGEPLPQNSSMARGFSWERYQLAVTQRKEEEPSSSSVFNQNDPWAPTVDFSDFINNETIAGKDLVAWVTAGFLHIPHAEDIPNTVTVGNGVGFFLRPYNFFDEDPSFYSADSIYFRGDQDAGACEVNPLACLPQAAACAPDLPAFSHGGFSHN
- Assay summary: Activity evaluation on recombinant human VAP-1 (Amplex Red/HRP-coupled hydrogen peroxide assay, benzylamine substrate)
- Assay type: biochemical
- Conditions: recombinant human VAP-1, benzylamine substrate; read-out: Inhibitory Activity (IC50, nM) human VAP-1
Counter-ions that a name gives are not always drawn.
Could you please mark Fulfilled for values of IC50 below 1 nM and Not fulfilled for values at or above it?

1. NCC(Cn1ncn(-c2cccc(-c3cccc(N4CCNCC4)c3)n2)c1=O)=C(F)F [Example 216, Ditrifluoroacetate]; Not fulfilled
2. Cc1cc(-c2ccc3c(c2)CN(C)C(=O)N3)cnc1-n1cnn(CC(CN)=C(F)F)c1=O [Example 250, Trifluoroacetate]; Fulfilled
3. NCC(Cn1ncn(-c2cccc(-c3ccc(N4CCNCC4)nc3)n2)c1=O)=C(F)F [Example 213, Ditrifluoroacetate]; Not fulfilled
4. CCn1cc(-c2ccccc2Cn2cnn(CC(CN)=C(F)F)c2=O)cn1 [Example 278, trifluoroacetate]; Not fulfilled
5. Cc1cc(-c2ccc3sc(Cn4cnn(CC(CN)=C(F)F)c4=O)cc3c2)cc2c1NC(=O)CC2 [Example 210, Trifluoroacetate]; Not fulfilled
